target-entity: human TLR8 (Homo sapiens (Human))
Sequence (Q9NR97 27-1041): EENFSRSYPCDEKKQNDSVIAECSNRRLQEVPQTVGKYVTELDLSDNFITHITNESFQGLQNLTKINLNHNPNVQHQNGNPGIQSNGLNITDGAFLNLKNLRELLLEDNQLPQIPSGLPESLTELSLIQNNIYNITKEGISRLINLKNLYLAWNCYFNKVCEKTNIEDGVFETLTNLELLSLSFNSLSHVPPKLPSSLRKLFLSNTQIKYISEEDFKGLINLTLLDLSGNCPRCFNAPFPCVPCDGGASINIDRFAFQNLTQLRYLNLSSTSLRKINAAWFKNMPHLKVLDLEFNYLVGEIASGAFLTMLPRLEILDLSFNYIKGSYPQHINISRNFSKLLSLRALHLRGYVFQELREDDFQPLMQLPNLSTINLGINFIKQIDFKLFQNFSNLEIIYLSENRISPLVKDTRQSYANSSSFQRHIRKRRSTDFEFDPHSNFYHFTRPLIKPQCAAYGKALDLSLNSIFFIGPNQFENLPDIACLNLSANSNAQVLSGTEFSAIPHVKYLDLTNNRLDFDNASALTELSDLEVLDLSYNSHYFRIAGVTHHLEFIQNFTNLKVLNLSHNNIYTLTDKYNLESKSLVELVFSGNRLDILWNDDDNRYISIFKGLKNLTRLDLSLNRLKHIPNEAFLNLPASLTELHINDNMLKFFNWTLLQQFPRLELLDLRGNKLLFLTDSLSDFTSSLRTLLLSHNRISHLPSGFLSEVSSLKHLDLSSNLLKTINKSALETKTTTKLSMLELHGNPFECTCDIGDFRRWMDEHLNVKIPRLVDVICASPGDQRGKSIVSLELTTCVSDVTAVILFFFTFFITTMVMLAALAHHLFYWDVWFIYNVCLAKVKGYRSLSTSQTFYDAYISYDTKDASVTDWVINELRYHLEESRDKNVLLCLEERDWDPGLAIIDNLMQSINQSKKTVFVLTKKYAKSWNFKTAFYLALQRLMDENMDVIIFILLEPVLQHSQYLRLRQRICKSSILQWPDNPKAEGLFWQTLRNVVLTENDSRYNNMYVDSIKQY
test-summary: HEK-Blue-hTLR8 cells assay and selectivity index
Type: cell-based
experimental-conditions: EC50(TLR8) value/EC50(TLR7) value
measurement-type: Selective index
No unit in the answer, please; the number alone is enough.

Request: What value of measured Selective index is listed for CS(=N)(=O)c1nc(N)c2[nH]c(=O)n(Cc3ccc(Cl)cc3)c2n1 (stereo not drawn) ?
Result: 6977

Request: CCS(=N)(=O)c1nc(N)c2[nH]c(=O)n(Cc3ccc(Cl)cc3)c2n1 (stereo not drawn) [Example 70]
Result: 1579

----------
test-summary: LYSA solubility
Format: physicochemical
experimental-conditions: 0.05 M phosphate buffer, pH 6.5, aqueous buffer, thermodynamic from solid
measurement-type: solubility thermodynamic (µg/mL)
Only the number, expressed in µg/mL, is required.

Request: What value of measured solubility thermodynamic is listed for CCCS(=N)(=O)c1nc(N)c2[nH]c(=O)n(Cc3ccc(C#N)cc3)c2n1 (stereo not shown) [Example 32] ?
Result: 18

Request: CCCCS(=N)(=O)c1nc(N)c2[nH]c(=O)n(Cc3ccccc3)c2n1 (stereo not shown) [Example 5]
Result: 40

Request: CCCS(=N)(=O)c1nc(N)c2[nH]c(=O)n(CC(C)C)c2n1 (stereo not shown) [Example 21]
Result: 121

Request: CCCS(=N)(=O)c1nc(N)c2[nH]c(=O)n(Cc3ccccc3)c2n1 (stereo not shown) [Example 4]
Result: 21

Request: CCCS(=N)(=O)c1nc(N)c2[nH]c(=O)n(Cc3ccc(F)cc3)c2n1 (stereo not shown) [Example 24]
Result: 12

Request: N=S(=O)(CC(F)(F)F)c1nc(N)c2[nH]c(=O)n(Cc3ccccc3)c2n1 (stereo not shown) [Example 7]
Result: 18

Request: CCCS(=N)(=O)c1nc(N)c2[nH]c(=O)n(Cc3cnc(C)nc3)c2n1 (stereo not shown) [Example 44]
Result: 357

Request: COCCCS(=N)(=O)c1nc(N)c2[nH]c(=O)n(Cc3ccccc3)c2n1 (stereo not shown) [Example 6]
Result: 89

Request: COCCS(=N)(=O)c1nc(N)c2[nH]c(=O)n(Cc3ccccc3)c2n1 (stereo not shown) [Example 3]
Result: 300

Request: CCCS(=N)(=O)c1nc(N)c2[nH]c(=O)n(Cc3ccc(C)cc3)c2n1 (single isomer, unassigned) [Example 29-A]
Result: 6

Request: CCCS(=N)(=O)c1nc(N)c2[nH]c(=O)n(Cc3ccc(F)c(F)c3)c2n1 (stereo not shown) [Example 27]
Result: 7

Request: CCCS(=N)(=O)c1nc(N)c2[nH]c(=O)n(Cc3cccc(C(N)=O)c3)c2n1 (stereo not shown) [Example 18]
Result: 166

Request: CCS(=N)(=O)c1nc(N)c2[nH]c(=O)n(Cc3ccc(F)cc3)c2n1 (stereo not shown) [Example 72]
Result: 152

Request: CS(=N)(=O)c1nc(N)c2[nH]c(=O)n(Cc3ccccc3)c2n1 (single isomer, unassigned) [Example 1-B]
Result: 98

Request: CCS(=N)(=O)c1nc(N)c2[nH]c(=O)n(Cc3ccc(C)cc3)c2n1 (stereo not shown) [Example 71]
Result: 12

Request: CCS(=N)(=O)c1nc(N)c2[nH]c(=O)n(Cc3ccc(C)cc3)c2n1 (single isomer, unassigned) [Example 71-A]
Result: 13

Request: CCS(=N)(=O)c1nc(N)c2[nH]c(=O)n(Cc3ccc(Cl)cc3)c2n1 (single isomer, unassigned) [Example 70-B]
Result: 5

Request: CCS(=N)(=O)c1nc(N)c2[nH]c(=O)n(Cc3ccc(Cl)cc3)c2n1 (stereo not shown) [Example 70]
Result: 7

Request: CCS(=N)(=O)c1nc(N)c2[nH]c(=O)n(Cc3ccc(F)cc3)c2n1 (single isomer, unassigned) [Example 72-A]
Result: 90

Request: CS(=N)(=O)c1nc(N)c2[nH]c(=O)n(Cc3ccc(Cl)cc3)c2n1 (stereo not shown) [Example 13]
Result: 10

Request: CCCS(=N)(=O)c1nc(N)c2[nH]c(=O)n(Cc3ccc(C(N)=O)cc3)c2n1 (stereo not shown) [Example 33]
Result: 79

Request: CCCS(=N)(=O)c1nc(N)c2[nH]c(=O)n(Cc3ccccc3)c2n1 (single isomer, unassigned) [Example 4-A]
Result: 56

Request: CCCS(=N)(=O)c1nc(N)c2[nH]c(=O)n(Cc3ccc(C(=O)NCCOC)cc3)c2n1 (stereo not shown) [Example 40]
Result: 168

Request: CCS(=N)(=O)c1nc(N)c2[nH]c(=O)n(Cc3ccccc3)c2n1 (stereo not shown) [Example 2]
Result: 29

Request: COc1ccc(Cn2c(=O)[nH]c3c(N)nc(S(=N)(=O)CCCCl)nc32)cc1 (stereo not shown) [Example 11]
Result: 18

----------
target-entity: hERG channel (Homo sapiens (Human), UniProt Q12809)
Sequence (Q12809 whole entry): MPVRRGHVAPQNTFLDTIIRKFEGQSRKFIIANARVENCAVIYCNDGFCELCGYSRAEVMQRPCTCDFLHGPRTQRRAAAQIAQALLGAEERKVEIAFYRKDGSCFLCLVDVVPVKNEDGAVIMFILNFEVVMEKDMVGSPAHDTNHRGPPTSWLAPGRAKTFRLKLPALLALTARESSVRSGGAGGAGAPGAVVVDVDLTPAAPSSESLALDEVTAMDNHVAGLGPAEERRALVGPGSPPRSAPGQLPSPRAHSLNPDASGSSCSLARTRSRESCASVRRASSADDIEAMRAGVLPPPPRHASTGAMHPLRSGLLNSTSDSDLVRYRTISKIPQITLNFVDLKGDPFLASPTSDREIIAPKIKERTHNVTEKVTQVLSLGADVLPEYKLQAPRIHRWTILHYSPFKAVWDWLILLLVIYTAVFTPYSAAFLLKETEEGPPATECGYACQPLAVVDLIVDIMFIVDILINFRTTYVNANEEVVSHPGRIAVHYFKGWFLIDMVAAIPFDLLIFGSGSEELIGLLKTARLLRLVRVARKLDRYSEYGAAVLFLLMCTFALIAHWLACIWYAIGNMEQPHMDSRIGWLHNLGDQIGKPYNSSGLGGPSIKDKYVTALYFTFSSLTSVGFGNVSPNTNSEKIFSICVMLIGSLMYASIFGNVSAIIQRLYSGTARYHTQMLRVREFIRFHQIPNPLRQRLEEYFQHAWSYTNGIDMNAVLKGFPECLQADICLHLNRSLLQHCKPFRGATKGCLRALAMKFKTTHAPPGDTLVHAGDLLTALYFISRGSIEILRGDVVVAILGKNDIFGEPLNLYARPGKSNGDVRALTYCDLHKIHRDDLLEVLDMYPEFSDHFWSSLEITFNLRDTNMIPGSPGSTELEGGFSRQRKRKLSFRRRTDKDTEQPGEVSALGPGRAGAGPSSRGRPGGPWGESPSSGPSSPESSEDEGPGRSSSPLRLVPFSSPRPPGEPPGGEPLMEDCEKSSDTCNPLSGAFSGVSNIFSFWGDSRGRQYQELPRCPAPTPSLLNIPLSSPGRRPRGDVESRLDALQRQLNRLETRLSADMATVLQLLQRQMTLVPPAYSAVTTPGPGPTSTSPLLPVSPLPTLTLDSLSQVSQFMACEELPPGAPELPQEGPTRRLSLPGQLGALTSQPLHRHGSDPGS
test-summary: hERG channel inhibition assay (patch-clamp, CHOhERG cells)
Type: cell-based
experimental-conditions: hERG IC20/EC50
measurement-type: Safety ratio (hERG IC20/EC50)

Request: What value of measured Safety ratio (hERG IC20/EC50) is listed for CCCS(=N)(=O)c1nc(N)c2[nH]c(=O)n(Cc3ccc(F)c(F)c3)c2n1 (stereo not shown) [Example 27] ?
Result: >278

Request: CCCS(=N)(=O)c1nc(N)c2[nH]c(=O)n(Cc3ccc(C)cc3)c2n1 (single isomer, unassigned) [Example 29-B]
Result: >546

Request: CCCS(=N)(=O)c1nc(N)c2[nH]c(=O)n(Cc3ccccc3)c2n1 (stereo not shown) [Example 4]
Result: >154

Request: CCCS(=N)(=O)c1nc(N)c2[nH]c(=O)n(Cc3ccccc3)c2n1 (single isomer, unassigned) [Example 4-B]
Result: >116

----------
I'd appreciate it if you could supply CO values for the items below.
test-summary: Single dose PK after 1 mg/kg intravenous dosing to rat
Format: in vivo, Male Wister-Han Rats
experimental-conditions: IV 1 mpk
Description: The single dose PK in Male Wister-Han Rats was performed to assess pharmacokinetic properties of tested compounds. Two groups of animals were dosed via bolus intravenous (IV) of the respective compound. Blood samples (approximately 20 μL) were collected via Jugular vein or an alternate site at 5 min, 15 min, 30 min, 1 hr, 2 hr, 4 hr, 7 hr and 24 hr post-dose for IV group. […] The pharmacokinetic parameters were calculated using non-compartmental module of WinNonlin® Professional 6.2. […]
Only the number, expressed in nM, is required.

Request: What value of measured CO is listed for CCS(=N)(=O)c1nc(N)c2[nH]c(=O)n(Cc3ccc(C)cc3)c2n1 (single isomer, unassigned) ?
Result: 1848

Request: CS(=O)(=O)c1nc(N)c2[nH]c(=O)n(Cc3ccccc3)c2n1 [Example S-1, reference compound]
Result: 534

Request: CCS(=N)(=O)c1nc(N)c2[nH]c(=O)n(Cc3ccc(Cl)cc3)c2n1 (single isomer, unassigned) [Example 70-A]
Result: 3052

Request: CCS(=N)(=O)c1nc(N)c2[nH]c(=O)n(Cc3ccc(Cl)cc3)c2n1 (single isomer, unassigned) [Example 70-B]
Result: 2782

----------
target-entity: human TLR7 (Homo sapiens (Human), UniProt Q9NYK1)
Sequence (Q9NYK1 27-1049): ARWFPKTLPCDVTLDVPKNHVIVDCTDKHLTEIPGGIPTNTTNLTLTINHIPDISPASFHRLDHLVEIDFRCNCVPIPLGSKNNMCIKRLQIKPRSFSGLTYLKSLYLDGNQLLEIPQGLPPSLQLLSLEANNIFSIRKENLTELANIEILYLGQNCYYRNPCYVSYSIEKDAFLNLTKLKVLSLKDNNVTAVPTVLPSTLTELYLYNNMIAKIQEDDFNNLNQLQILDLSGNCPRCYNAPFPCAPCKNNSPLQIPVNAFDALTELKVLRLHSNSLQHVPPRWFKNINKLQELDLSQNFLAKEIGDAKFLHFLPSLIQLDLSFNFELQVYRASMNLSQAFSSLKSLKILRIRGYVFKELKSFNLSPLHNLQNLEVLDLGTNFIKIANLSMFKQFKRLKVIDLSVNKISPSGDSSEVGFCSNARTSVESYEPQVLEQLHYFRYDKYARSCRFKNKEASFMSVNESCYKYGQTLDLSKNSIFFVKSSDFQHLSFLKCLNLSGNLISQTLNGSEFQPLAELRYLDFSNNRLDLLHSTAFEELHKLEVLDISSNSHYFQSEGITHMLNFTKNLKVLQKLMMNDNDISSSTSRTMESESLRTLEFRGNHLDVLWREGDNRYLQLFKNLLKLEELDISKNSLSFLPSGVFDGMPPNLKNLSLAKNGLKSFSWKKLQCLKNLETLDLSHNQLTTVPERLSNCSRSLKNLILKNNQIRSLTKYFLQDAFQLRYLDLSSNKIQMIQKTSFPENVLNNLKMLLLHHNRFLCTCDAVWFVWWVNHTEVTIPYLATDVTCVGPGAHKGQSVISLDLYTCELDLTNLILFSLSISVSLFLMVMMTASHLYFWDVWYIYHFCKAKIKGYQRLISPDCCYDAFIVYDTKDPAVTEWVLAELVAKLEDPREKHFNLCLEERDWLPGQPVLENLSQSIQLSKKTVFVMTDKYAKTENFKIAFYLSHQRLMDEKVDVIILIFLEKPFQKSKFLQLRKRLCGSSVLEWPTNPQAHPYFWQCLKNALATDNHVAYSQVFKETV
test-summary: HEK-Blue-hTLR7 cells assay (SEAP reporter)
Format: cell-based
experimental-conditions: HEK-Blue-hTLR7 (EC50 (μM)), 20 hrs
measurement-type: log10(EC50) (log10 of the value in µM)
All values: log10 EC50 [µM].

Request: What value of measured log10(EC50) is listed for COCCS(=N)(=O)c1nc(N)c2[nH]c(=O)n(Cc3ccccc3)c2n1 (single isomer, unassigned) [Example 3-B] ?
Result: -0.26

Request: CCCS(=N)(=O)c1nc(N)c2[nH]c(=O)n(Cc3ccc(Cl)cc3)c2n1 (single isomer, unassigned) [Example 9-B]
Result: -1.96

Request: CCCS(=N)(=O)c1nc(N)c2[nH]c(=O)n(Cc3cccc(C#N)c3)c2n1 (stereo not shown) [Example 17]
Result: -1.17

Request: CCCS(=N)(=O)c1nc(N)c2[nH]c(=O)n(Cc3ccc(Cl)cc3)c2n1 (single isomer, unassigned) [Example 9-A]
Result: -1.85

Request: CS(=N)(=O)c1nc(N)c2[nH]c(=O)n(Cc3cccnc3)c2n1 (single isomer, unassigned) [Example 16-A]
Result: -0.12

Request: CS(=N)(=O)c1nc(N)c2[nH]c(=O)n(Cc3cccnc3)c2n1 (single isomer, unassigned) [Example 16-B]
Result: -0.82

Request: CCCS(=N)(=O)c1nc(N)c2[nH]c(=O)n(Cc3ccc(C#N)cc3)c2n1 (stereo not shown) [Example 32]
Result: -1.27

----------
test-summary: GSH adduct screening assay
Assay type: in vitro ADME, rat and human
Design: key: No flag: No Flag: no GSH adduct formation observed when compared to control (DMSO)
experimental-conditions: 20 μM, RLM and HLM, 60 minutes
measurement-type: GSH results

Record excerpt, results attached:
molecule: CCCS(=N)(=O)c1nc(N)c2[nH]c(=O)n(Cc3ccc(C(=O)O)cc3)c2n1 (centres unmarked)
GSH results: No flag

molecule: CCCS(=N)(=O)c1nc(N)c2[nH]c(=O)n(Cc3ccccc3)c2n1 (single isomer, unassigned) [Example 4-A]
GSH results: No flag

molecule: CCCS(=N)(=O)c1nc(N)c2[nH]c(=O)n(Cc3ccccc3)c2n1 (single isomer, unassigned) [Example 4-B]
GSH results: No flag

molecule: CCCS(=N)(=O)c1nc(N)c2[nH]c(=O)n(Cc3ccccc3)c2n1 (centres unmarked) [Example 4]
GSH results: No flag

molecule: CCS(=N)(=O)c1nc(N)c2[nH]c(=O)n(Cc3ccc(Cl)cc3)c2n1 (single isomer, unassigned) [Example 70-B]
GSH results: No flag

molecule: CCS(=N)(=O)c1nc(N)c2[nH]c(=O)n(Cc3ccc(Cl)cc3)c2n1 (single isomer, unassigned) [Example 70-A]
GSH results: No flag

molecule: CCCS(=N)(=O)c1nc(N)c2[nH]c(=O)n(Cc3ccc(Cl)cc3)c2n1 (centres unmarked)
GSH results: No flag

molecule: CCS(=N)(=O)c1nc(N)c2[nH]c(=O)n(Cc3ccc(C)cc3)c2n1 (single isomer, unassigned)
GSH results: No flag

molecule: CCCS(=N)(=O)c1nc(N)c2[nH]c(=O)n(Cc3ccc(C)nc3)c2n1 (centres unmarked)
GSH results: No flag

molecule: CCCS(=N)(=O)c1nc(N)c2[nH]c(=O)n(Cc3ccc(F)c(F)c3)c2n1 (centres unmarked)
GSH results: No flag

Request: What value of measured GSH results is listed for CCCS(=N)(=O)c1nc(N)c2[nH]c(=O)n(Cc3ccc(C)cc3)c2n1 (single isomer, unassigned) ?
Result: No flag
